# System: UO-31 renal
# measurementProtocol: NCI tumour cell line growth inhibition, 48 h
Below: a set of entries, each annotated with reported TGI.

>  <compound>
COc1ccc(C#CC2=C(Br)C(=O)OC2)cc1

>  <val>
> 50 µM

$$$$
>  <compound>
NC(=S)N/N=C1/C(=O)N(c2ccccc2)C(=O)C1C(=O)Nc1ccccc1 (stereo not drawn)

>  <val>
> 100 µM

$$$$

Kindly consider the entry below.
QUERY: Which TGI value belongs to O=C1c2ccccc2-c2c1c1ccc([N+](=O)[O-])cc1c(=O)n2CCN1CCOCC1 ?
RESULT: > 100 µM

###

# System: PC-3 prostate
# measurementProtocol: NCI tumour cell line growth inhibition, 48 h
Peptide text beside a SMILES is read from it. * marks the point of attachment. Cbz = O=C(OCc1ccccc1)*
Below: a set of entries, each annotated with reported TGI.

Worked set:
>  <compound>
CCCCCC/C=C\CCCCCCCCCc1cccc(OC)c1O

>  <measuredTarget>
PC-3 prostate

>  <TGI>
> 100 µM

$$$$
>  <compound>
O=C(/C=C/c1cc(O)ccc1O)c1ccc(Cl)cc1

>  <measuredTarget>
PC-3 prostate

>  <TGI>
> 100 µM

$$$$
>  <compound>
CN(C)c1ccc(C2=C([O-])c3cc(-[n+]4ccccc4)ccc3C2=O)cc1

>  <measuredTarget>
PC-3 prostate

>  <TGI>
> 100 µM

$$$$
>  <compound>
CC[C@H](C)C(=O)O[C@H]1C[C@@H](C)C=C2C=C[C@H](C)[C@H](CC[C@@H]3C[C@@H](O)CC(=O)O3)[C@H]21

>  <measuredTarget>
PC-3 prostate

>  <TGI>
> 100 µM

$$$$
>  <compound>
COc1cc(/C=C/C(=O)N[C@@H]2C(=O)N3[C@@H]2SC(C)(C)[C@@H]3C(=O)O)ccc1O

>  <measuredTarget>
PC-3 prostate

>  <TGI>
> 100 µM

$$$$
>  <compound>
CCOC(=O)CCC(NC(=O)CNC(=O)CNC(=O)C(CCC(=O)OCC)NC(=O)C(CCC(=O)OCC)NC(=O)C(CCC(=O)OCC)NC(=O)OCc1ccccc1)C(=O)NC(CCC(=O)OCC)C(=O)NC(CCC(=O)OCC)C(=O)OCC (configuration not stated) (Cbz-E(OEt)E(OEt)E(OEt)GGE(OEt)E(OEt)E(OEt)-OEt; configuration not given here)

>  <measuredTarget>
PC-3 prostate

>  <TGI>
> 75 µM

$$$$
>  <compound>
COc1ccc(OC)c2c1ccc1c(C)c3ccccc3c(C)c12

>  <measuredTarget>
PC-3 prostate

>  <TGI>
> 100 µM

$$$$
>  <compound>
COc1ccc(/C=C\c2cc(OC)c(OC)c(OC)c2)cc1N/C=C\C(=O)c1c[nH]c2ccccc12

>  <measuredTarget>
PC-3 prostate

>  <TGI>
> 100 µM

$$$$

QUERY: # value lookup — system PC-3 prostate, readout TGI, item Nc1ccc(Cc2ccc(N)c(C(=O)O)c2)cc1C(=O)O
RESULT: > 100 µM

QUERY: # value lookup — system PC-3 prostate, readout TGI, item C[C@]12O[C@@]3(C)O[C@@]3(C)[C@]3(C)O[C@]3(C)[C@@]1(C)O2
RESULT: > 100 µM

QUERY: # value lookup — system PC-3 prostate, readout TGI, item COc1ccc(-n2nc(C(=O)c3ccccc3)c3nn4c(=O)cc(-c5ccccc5)nc4nc32)cc1
RESULT: > 100 µM

Data credit: PubChem BioAssay (NCI)
